Target: Multidrug resistance-associated protein 1 (Homo sapiens)
Sequence (P33527 whole entry): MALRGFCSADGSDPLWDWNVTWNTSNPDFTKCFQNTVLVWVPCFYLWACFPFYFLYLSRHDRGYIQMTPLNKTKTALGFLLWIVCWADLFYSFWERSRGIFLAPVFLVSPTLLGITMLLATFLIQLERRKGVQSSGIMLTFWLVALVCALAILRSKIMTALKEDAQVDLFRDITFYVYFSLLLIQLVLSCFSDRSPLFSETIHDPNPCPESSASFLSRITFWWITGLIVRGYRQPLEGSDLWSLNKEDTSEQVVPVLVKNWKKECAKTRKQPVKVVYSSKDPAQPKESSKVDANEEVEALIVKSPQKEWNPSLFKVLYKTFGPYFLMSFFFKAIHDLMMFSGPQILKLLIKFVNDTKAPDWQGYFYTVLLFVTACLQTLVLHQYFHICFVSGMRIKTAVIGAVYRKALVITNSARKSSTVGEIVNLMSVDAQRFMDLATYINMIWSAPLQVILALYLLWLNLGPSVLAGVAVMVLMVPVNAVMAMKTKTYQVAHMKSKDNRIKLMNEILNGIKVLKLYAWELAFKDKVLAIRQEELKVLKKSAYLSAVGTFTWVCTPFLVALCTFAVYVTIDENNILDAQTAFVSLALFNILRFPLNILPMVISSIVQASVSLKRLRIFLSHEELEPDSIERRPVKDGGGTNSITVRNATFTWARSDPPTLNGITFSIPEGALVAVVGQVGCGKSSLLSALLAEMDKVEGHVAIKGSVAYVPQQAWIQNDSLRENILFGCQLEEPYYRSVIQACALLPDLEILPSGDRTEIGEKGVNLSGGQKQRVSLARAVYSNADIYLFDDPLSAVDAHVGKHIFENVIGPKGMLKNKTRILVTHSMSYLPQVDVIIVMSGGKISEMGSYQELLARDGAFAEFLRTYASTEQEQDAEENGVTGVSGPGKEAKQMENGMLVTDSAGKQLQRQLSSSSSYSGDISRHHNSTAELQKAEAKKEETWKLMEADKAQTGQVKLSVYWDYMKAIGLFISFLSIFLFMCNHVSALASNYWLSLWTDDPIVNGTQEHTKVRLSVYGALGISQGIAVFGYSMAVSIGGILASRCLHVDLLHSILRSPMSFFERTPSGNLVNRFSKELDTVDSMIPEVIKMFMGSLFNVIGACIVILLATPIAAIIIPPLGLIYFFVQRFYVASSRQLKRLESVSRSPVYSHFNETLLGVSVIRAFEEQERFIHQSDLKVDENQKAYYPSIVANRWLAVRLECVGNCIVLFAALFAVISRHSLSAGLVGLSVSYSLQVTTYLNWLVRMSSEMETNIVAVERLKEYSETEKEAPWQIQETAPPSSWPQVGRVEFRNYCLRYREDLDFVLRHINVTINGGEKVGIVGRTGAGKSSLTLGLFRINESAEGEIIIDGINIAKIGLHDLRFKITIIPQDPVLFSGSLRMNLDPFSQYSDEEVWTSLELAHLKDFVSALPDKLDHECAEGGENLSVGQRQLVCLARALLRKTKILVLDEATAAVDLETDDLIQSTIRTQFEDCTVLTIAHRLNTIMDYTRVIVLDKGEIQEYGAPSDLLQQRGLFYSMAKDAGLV
Test: Inhibition of MRP1 (unknown origin) expressed in MDCK cells assessed as reduction in calcein-AM efflux preincubated for 30 mins followed by calcein-AM addition measured after 30 mins by fluorescence assay
pEC50: −log10 of the molar value.
Property Measured: pEC50

[
  {
    "Smiles Data": "COc1cc2c(cc1OC)CN(Cc1ccc(-c3ccc(O)cc3OC)cc1)CC2",
    "Test Target": "Multidrug resistance-associated protein 1 (Homo sapiens)",
    "Property Measured": "pEC50",
    "Value Observed": 4.21
  },
  {
    "Smiles Data": "COc1cc2c(cc1OC)CN(Cc1ccc(-c3ccc(O)c([N+](=O)[O-])c3)cc1)CC2",
    "Test Target": "Multidrug resistance-associated protein 1 (Homo sapiens)",
    "Property Measured": "pEC50",
    "Value Observed": 4.54
  },
  {
    "Smiles Data": "COc1cc2c(cc1OC)CN(Cc1ccc(-c3ccc(O)cc3)c(OC)c1)CC2",
    "Test Target": "Multidrug resistance-associated protein 1 (Homo sapiens)",
    "Property Measured": "pEC50",
    "Value Observed": 4.42
  }
]
